target.system: UniProt P09467
Sequence (P09467 whole entry): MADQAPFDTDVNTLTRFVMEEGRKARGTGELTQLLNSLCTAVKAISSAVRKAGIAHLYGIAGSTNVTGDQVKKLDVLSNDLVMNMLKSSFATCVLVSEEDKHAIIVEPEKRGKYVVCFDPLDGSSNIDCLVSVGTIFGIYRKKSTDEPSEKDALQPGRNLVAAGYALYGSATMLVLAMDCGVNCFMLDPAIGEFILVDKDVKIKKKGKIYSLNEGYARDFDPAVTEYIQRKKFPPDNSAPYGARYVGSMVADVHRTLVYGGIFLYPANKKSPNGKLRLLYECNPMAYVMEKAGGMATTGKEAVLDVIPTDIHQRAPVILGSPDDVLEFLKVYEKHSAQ
assay.details: FBPase inhibition assay (Taketa and Pogell): conversion of fructose-1,6-bisphosphate to fructose-6-phosphate, NADPH formation at 340 nm via coupled reactions
Assay type: biochemical
test.settings: concentration of inhibitor giving 50% inhibition of FBPase activity; read-out: IC50
endpoint.label: log10 IC50 (log10 of the value in µM)

compound	target.system	log10 IC50
O=C(O)c1ccc(CNC(=O)C(c2ccc3c(c2)-c2ccccc2C3)N2C(=O)C3Cc4ccccc4CN3C(=O)C2Cc2ccccc2)cc1 (stereo not drawn)	UniProt P09467	1.43
O=C(NCCc1ccc(O)cc1)C(c1ccc([N+](=O)[O-])cc1)N1C(=O)[C@H](Cc2ccccc2)NC(=O)[C@@H]1CC1CCCCC1 (stereo partly drawn)	UniProt P09467	1.38
CCCC(C(=O)NCCc1ccc(O)cc1)N1C(=O)[C@@H]2Cc3ccccc3CN2C(=O)[C@@H]1Cc1ccccc1 (stereo partly drawn)	UniProt P09467	1.53
NC(=O)c1ccc(C(C(=O)NCCc2ccc(F)cc2)N2C(=O)[C@@H]3Cc4ccccc4CN3C(=O)[C@@H]2CC2CCCCC2)cc1 (stereo partly drawn)	UniProt P09467	1.51
N#Cc1ccc(C(C(=O)NCCc2ccc(O)cc2)N2C(=O)[C@@H]3Cc4ccccc4CN3C(=O)[C@@H]2CC2CCCCC2)cc1 (stereo partly drawn)	UniProt P09467	0.32
CCCC(C(=O)NCCc1ccc(O)cc1)N1C(=O)[C@@H]2Cc3ccccc3CN2C(=O)[C@@H]1Cc1ccc(O)cc1 (stereo partly drawn)	UniProt P09467	1.65
